Readings of Metabolites in Urine (0-168 hr), Rat, % Dose for the listed compounds
- test description: Radioactive metabolites in plasma, urine and feces after single oral dose of [14C] compound (I) to rats
- Format: in vivo, Sprague-Dawley rat
- test parameters: oral 15 mg/kg, pooled urine 0-168 hr
property: Metabolites in Urine (0-168 hr), Rat, % Dose (%)

>  <compound>
Cc1nc(Nc2ncc(C(=O)Nc3c(C)cccc3Cl)s2)cc(N2CC[N+]([O-])(CCO)CC2)n1

>  <endpoint value>
3.4

$$$$
>  <compound>
Cc1nc(Nc2ncc(C(=O)Nc3c(C)cccc3Cl)s2)cc(N2CCNCC2)n1

>  <endpoint value>
0.3

$$$$
>  <compound>
Cc1nc(Nc2ncc(C(=O)Nc3c(C)cc(O)cc3Cl)s2)cc(N2CCN(CCO)CC2)n1

>  <endpoint value>
0.6

$$$$
>  <compound>
Cc1nc(Nc2ncc(C(=O)Nc3c(C)cccc3Cl)s2)cc(N2CCN(CC(=O)O)CC2)n1

>  <endpoint value>
0.4

$$$$
>  <compound>
Cc1nc(Nc2ncc(C(=O)Nc3c(C)cccc3Cl)s2)cc(N2CCN(CCO)CC2)n1 [Parent (I), reference compound]

>  <endpoint value>
0.7

$$$$
